The reported numbers originate from the supplement of paper PMC10307832.

relative viability listing for selected compounds.
test system: NCI-H1975; experiment: relative viability (nuclei count vs DMSO), 5 days (fraction); higher = more cells survive; conditions: first compound 0.1265 µM
Measured quantity: relative viability

Compound	Result
COc1cc(N2CCC(C(N)=O)CC2)ccc1Nc1nc(N)c(Cl)c(Nc2ccccc2S(=O)(=O)C(C)C)n1 [HG-5-88-01] + Cc1cc(Nc2cc(N3CCN(C)CC3)nc(Sc3ccc(NC(=O)C4CC4)cc3)n2)n[nH]1 [Tozasertib] (partner 0.1 µM)	0.715
COc1cc(N2CCC(C(N)=O)CC2)ccc1Nc1nc(N)c(Cl)c(Nc2ccccc2S(=O)(=O)C(C)C)n1 [HG-5-88-01] + CS(=O)(=O)CCNCc1ccc(-c2ccc3ncnc(Nc4ccc(OCc5cccc(F)c5)c(Cl)c4)c3c2)o1 [Lapatinib] (partner 2 µM)	0.907
C[C@@H]1CN(CC(=O)Nc2ccc3c(c2)Cc2cccc(-c4cc(=O)cc(N5CCOCC5)o4)c2S3)C[C@H](C)O1 + CS(=O)(=O)N1CCN(Cc2cc3nc(-c4cccc5[nH]ncc45)nc(N4CCOCC4)c3s2)CC1 [Pictilisib] (partner 1 µM)	0.263
C[C@@H]1CN(CC(=O)Nc2ccc3c(c2)Cc2cccc(-c4cc(=O)cc(N5CCOCC5)o4)c2S3)C[C@H](C)O1 + CC1(C)CCC(c2ccc(Cl)cc2)=C(CN2CCN(c3ccc(C(=O)NS(=O)(=O)c4ccc(N[C@H](CCN5CCOCC5)CSc5ccccc5)c(S(=O)(=O)C(F)(F)F)c4)cc3)CC2)C1 [Navitoclax] (partner 0.5 µM)	1.06
